- Test system: HCT-116
- experimentalDetails: Cytotoxicity against human HCT116 cells
- Format: functional, cell-based
measuredEndpoint: IC50
Note: state the figure and append the unit.

Prompt line: Bench note: what IC50 did `COc1cc(-c2oc3cc(O)cc(O)c3c(=O)c2O[C@@H]2O[C@H](CO)[C@@H](O)[C@H](O)[C@H]2O[C@@H]2O[C@@H](C)[C@H](O)[C@@H](O)[C@H]2O)ccc1O` show?
Response line: 72 µM

The reported measurements were obtained from ChEMBL document CHEMBL2429793.
